TARGET OR SYSTEM: T1, human FGFR3 isoform IIIb (human, UniProt P22607-2 23-377)
T1 construct: Isoform IIIb differs from the canonical IIIc entry in the D3 domain; also called hFGFR3IIIb; FGFR3 IIIb
T1 sequence (looked up): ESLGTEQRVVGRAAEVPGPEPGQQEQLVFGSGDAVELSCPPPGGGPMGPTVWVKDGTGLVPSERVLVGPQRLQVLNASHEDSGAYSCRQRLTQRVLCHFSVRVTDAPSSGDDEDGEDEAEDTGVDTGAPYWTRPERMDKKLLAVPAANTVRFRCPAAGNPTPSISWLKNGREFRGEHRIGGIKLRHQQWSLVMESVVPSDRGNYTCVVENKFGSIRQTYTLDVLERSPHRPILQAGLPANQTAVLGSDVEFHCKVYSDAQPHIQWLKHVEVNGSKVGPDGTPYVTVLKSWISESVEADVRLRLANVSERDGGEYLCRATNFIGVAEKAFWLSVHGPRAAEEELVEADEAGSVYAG
RUN DESCRIPTION: reactivity grade (Table 2); method not given

| BINDER | binding result |
| --- | --- |
| KE94 (antibody, V domains shown, Mouse monoclonal antibody from a hybridoma; also called anti-FGFR3 antibody KE94) VH: QVQLQQSGAELVRPGASVTLSCKASGSTFTDFEIHWVKQTPVHGLEWIGAIDPETGGTAYNQKFKGKAILTAVKSSSTAYMGLRSLTSEDSAVYYCTRNYDGYSRTMDYWGQGTSVTVSS VL: NIMMTQSPSSLAVSAGEKVTMSCKSSQSVLYSSNQKNYLAWYQQKPGQSPKLLIYWASTRESGVPDRFTGSGSGTDFSLSISSVQTEDLAVYYCHQYLSSYTFGGGTRLEMK | binds |
| KE42 (antibody, V domains shown, Mouse monoclonal antibody from a hybridoma; also called anti-FGFR3 antibody KE42) VH: EVQLQQSGPELVKPGASVKMSCKASGYTFTDYNMHWVKQSHGKSLQWIGYINPNNGGTNYNQNFKDKATLTVNKSSTTAYMELRSLTSEDSAVYYCARERDYDGSMDFWGQGTSVTVSS VL: DIQMTQSPSSLSASLGGKVTITCKASQDINKFIAWYQHKPGKGPRLLIHYTSTLQPGIPSRFSGSGSGRDYSFSISNLEPEDIATYFCLQYDNLLWTFGGGTKLEIK | binds |
